Tested on: HeLa MZ
method.notes: filipin (cholesterol) integrated intensity within LBPA endosomes, Z-score; higher = more cholesterol in LBPA endosomes
test.context: compound concentration in added solution (µM; 5 µl added to 20 µl cells): 10; 18 h
Counter-ions that a name gives are not always drawn.
This section presents compounds with their documented filipin (z-score) values.

{"compound": "CC(C[N+](C)(C)C)OC(N)=O (centres undefined) [Bethanechol chloride]", "filipin (z-score)": -0.495}

Task: What filipin (z-score) value was documented for this compound, Cc1c(NC(=O)c2cccnc2)c(=O)n(-c2ccccc2)n1C ?
Output: -0.754

Task: What filipin (z-score) value was documented for this compound, O=C(O)c1cn(C2CC2)c2cc(N3CCNCC3)c(F)cc2c1=O [Ciprofloxacin hydrochloride hydrate] ?
Output: -0.519

Task: What filipin (z-score) value was documented for this compound, CCOC(=O)C1=C(COCCN)NC(C)=C(C(=O)OC)C1c1ccccc1Cl (centres undefined) ?
Output: 1.8

// data source = the supplement of paper PMC6607015
